measurement_description: Solubility test (Chinese Pharmacopoeia 2010)
Assay type: physicochemical
experimental_setup: 0.1M HCl, 25 °C, simulated gastric fluid, thermodynamic from solid, 25±2° C., 300 mg ground powder sample, shaken 30 seconds at 5 minute intervals, 30 minutes total, dissolution judged by eye
property: solubility at 30 min (mg/mL)
Record the value in mg/mL, omitting the unit from your answer.

Fill in: solubility at 30 min of CC(=O)Oc1cc2c(s1)CCN(C(C(=O)C1CC1)c1ccccc1F)C2.Cl (stereo not shown) [Form B2, prasugrel hydrochloride] is ___ 40
